Target: HLA-A*02:11
Experiment: IEDB peptide-MHC binding, purified MHC/direct/fluorescence; filed as Kd, often an IC50 or EC50 that approximates it; bounds were set here for any values at or beyond the usual limits of such assays
Conditions: source organism: Reston ebolavirus
endpoint name: Kd

Please report the recorded Kd for "KHDFIDNPL" .
≥ 20 µM

----------
Molecular target: HLA-B*57:01
Experiment: IEDB peptide-MHC binding, purified MHC/direct/fluorescence; filed as Kd, often an IC50 or EC50 that approximates it; bounds were set here for any values at or beyond the usual limits of such assays
Settings: source organism: Mycobacterium tuberculosis
pKd: −log10 of the molar value.
endpoint name: pKd

Consider the sequence "RPRLWRSVI" and give its measured pKd.
≤ 4.70

----------
Target: HLA-A*33:01
Test: IEDB peptide-MHC binding, purified MHC/competitive/radioactivity; filed as Kd, often an IC50 or EC50 that approximates it; bounds were set here for any values at or beyond the usual limits of such assays
Details: source organism: Mammarenavirus machupoense
endpoint name: Kd

Field request: Kd | item: "DSVKSILKWH"
≥ 33.1 µM

----------
Molecular target: HLA-A*69:01
Assay: IEDB peptide-MHC binding, purified MHC/direct/fluorescence; filed as Kd, often an IC50 or EC50 that approximates it; bounds were set here for any values at or beyond the usual limits of such assays
Conditions: source organism: Homo sapiens
endpoint name: Kd (µM)
Just the number please, in µM, no unit attached.

So what's the measured Kd for this one? "GSEDRDLLY"
3.96

----------
Target: HLA-A*29:02
Test: IEDB peptide-MHC binding, purified MHC/competitive/radioactivity; filed as Kd, often an IC50 or EC50 that approximates it; bounds were set here for any values at or beyond the usual limits of such assays
Details: source organism: Mammarenavirus lassaense
endpoint name: Kd (µM)
Just the number please, in µM, no unit attached.

Field request: Kd | item: "YFESYVRPFV"
3.94

Would you kindly repeat that for "ASPILRFLY" ?
0.0917

Please answer likewise for "AGFAAGLTY"
6.13

----------
Target: HLA-A*24:02
Assay: IEDB peptide-MHC binding, purified MHC/competitive/radioactivity; filed as Kd, often an IC50 or EC50 that approximates it; bounds were set here for any values at or beyond the usual limits of such assays
Conditions: source organism: Vaccinia virus WR
endpoint name: Kd (µM)
Give the quantity in µM, number only.

So what's the measured Kd for this one? "KTSTLIFFV"
6.6

----------
Target: HLA-A*02:06
Assay: IEDB peptide-MHC binding, purified MHC/competitive/radioactivity; filed as Kd, often an IC50 or EC50 that approximates it; bounds were set here for any values at or beyond the usual limits of such assays
Conditions: source organism: Dengue virus 2 Peru/IQT2913/1996
endpoint name: pKd
The scale used: pKd is minus the common logarithm of the concentration in molar units.

Please look up its pKd: "MIIMLIPTV"
8.12

----------
Target: HLA-A*66:01
Experiment: IEDB peptide-MHC binding, purified MHC/competitive/fluorescence; filed as Kd, often an IC50 or EC50 that approximates it; bounds were set here for any values at or beyond the usual limits of such assays
Conditions: source organism: Giardia lamblia ATCC 50803
pKd: −log10 of the molar value.
endpoint name: pKd

Data request, read-out pKd, for "MTFPLHFRS"
≤ 5.30

----------
Would you mind telling me the reported Kd of each entry?
Target: HLA-A*26:01
Assay: IEDB peptide-MHC binding, purified MHC/competitive/fluorescence; filed as Kd, often an IC50 or EC50 that approximates it; bounds were set here for any values at or beyond the usual limits of such assays
Settings: source organism: Homo sapiens

I'd like to know its Kd. The sequence in question is "FLQQRKPPL"
≥ 20 µM

Try "MQDVFTFYV" next.
≥ 20 µM

Can you handle "YITDYSNDI" next?
≥ 20 µM
